# System: P. falciparum stage V gametocytes
# Design: BacTiter-Glo ATP luminescence viability of purified stage V gametocytes in 384-well plates, per cent inhibition versus DMSO
# condition-info: 48 h, 5 µM; inhibitor
Out of some 13,000 compounds screened, about 3,200 (25%) showed an effect of 50% or more. This is one part of the list.
Binning of % Inhibition into classes: lower level (below -10%), middle level (-10% to below 40%), upper level (40% or more)

molecule	discrete-label
NC(N)=Nc1ccc(OCCCCCOc2ccc(N=C(N)N)cc2Br)c(Br)c1 [TCMDC-137543]	upper level
CCc1ccc(CN2CCC(CNC(=O)c3cc(-c4ccccc4Cl)cs3)C2)cc1 (centres unmarked) [TCMDC-134433]	upper level
c1ccc2ncc(CNCCCCCCCCNCc3cnc4ccccc4c3)cc2c1 [TCMDC-137744]	upper level
C[C@@H]([C@@H](CCCCc1ccccc1)C(=O)N[C@H](C(=O)Nc1cccnc1)C(C)(C)C)N(O)C=O [TCMDC-138380]	lower level
CCCCN(CCCC)CCNC(=O)c1cccc(NC(=O)N2CCc3cc(SC)c(C(F)(F)F)cc32)c1 [TCMDC-139012]	lower level

Please examine the following record next.
Hi, small favor: classify COc1ccc(C(=O)Nc2cc(Cl)c3c(c2)C2CCCN2CC3)cc1C(F)(F)F (centres unmarked) [TCMDC-139417] by its % Inhibition when you get a moment. lower level

* * *

Exercise: for every item that follows, state its recorded % Inhibition.
# Tested on: P. falciparum stage V gametocytes
# Parameters: BacTiter-Glo ATP luminescence viability of purified stage V gametocytes in 384-well plates, per cent inhibition versus DMSO
# condition-info: 48 h, 5 µM; inhibitor
The campaign covered roughly 13,000 compounds. About 3,200 (25%) showed an effect of 50% or more. The list shows a part of the results.
Numbers only, in %.

# count of solved cases: 7
mol-smiles	endpoint-result
CS(=O)(=O)c1ccc(CCNCc2ccc(-c3ccc(CN(C(=O)C4CCCC4)C4CCN(Cc5ccccc5)CC4)cc3)nc2)cc1	48.38
O=C(/C=C/c1ccc(Cl)c(Cl)c1)NCCCCCN1CCC(NC(=O)Nc2cc(F)cc(F)c2)CC1	-53.24
O=S(=O)(NCCN1CCCC1)c1ccc(-c2cccc(CNC3Cc4ccccc4C3)c2)s1	90.5
O=S(=O)(NCCN1CCCC1)c1ccc(-c2ccc(CNC3Cc4ccccc4C3)cc2)s1	69.5
CN1CCC(C(=O)N(Cc2ccc(-c3ccc(CNCCc4ccc(S(C)(=O)=O)cc4)cn3)cc2)C2Cc3ccccc3C2)CC1	99.19
Clc1ccccc1CNc1noc(-c2sccc2Br)n1	-9.305
O=C(CCN(Cc1ccco1)c1nc(-c2ccc(F)cc2)nc2ccccc12)NC1CC1	-4.08

Next up:
Retrieve % Inhibition measured for O=c1cc(NCCCNCc2sc(Br)nc2Br)[nH]c2ccccc12 and print it. -16.17

* * *

# Tested on: P. falciparum stage V gametocytes
# Design: BacTiter-Glo ATP luminescence viability of purified stage V gametocytes in 384-well plates, per cent inhibition versus DMSO
# condition-info: 48 h, 5 µM; inhibitor
Among all 13,000 compounds or so, about 3,200 (25%) showed an effect of 50% or more. The list shows a part of the results.
Exercise: for every item that follows, state its recorded % Inhibition.
Numbers only, in %.

# count of solved cases: 2
compound	readout-type	endpoint-result
CC1(C)N=C(N)N=C(N)N1c1ccccc1 [TCMDC-123984]	% Inhibition	-31.19
CC(C)c1ccc(CN2CCC(CNC(=O)c3cc(-c4cccc(Cl)c4)cs3)C2)cc1 (centres unmarked) [TCMDC-134438]	% Inhibition	95.05

Consider the following items and state reported % Inhibition for each.
1. CCCN(CCC)c1nn2c(=O)c(C(=O)N3CCN(Cc4ccccc4)CC3)cnc2s1 [TCMDC-125272]
2. Cc1cc(NCCc2ccccc2)nc(/N=C(\N)Nc2ccc(Cl)cc2)n1 [TCMDC-131843]
3. N#Cc1ccnc(-c2ccc(CNC3CCN(CC4Cn5c(=O)ccc6ccc(F)c4c65)CC3)cc2)c1 (centres unmarked) [TCMDC-134408]
4. CC(C)c1ccc(CN2CCCCC(NC(=O)c3cc(-c4cccc(F)c4)cs3)C2)cc1 (centres unmarked) [TCMDC-134463]

1. -5.242
2. 52.3
3. -28.26
4. -60.78

Consider the following items and state reported % Inhibition for each.
1. CC(C(=O)Nc1ccc(Br)cc1Br)N1CCN(C(=O)c2ccco2)CC1 (centres unmarked) [TCMDC-124879]
2. CCC(=O)Nc1ccc(C(O)CN2CCC3(C=Cc4ccccc4O3)CC2)cc1 (centres unmarked) [TCMDC-124852]
3. Cc1cc(NCCc2ccccc2)nc(NC(=NCC(=O)OC(C)(C)C)Nc2ccc(C(F)(F)F)cc2)n1 [TCMDC-138520]
4. CN1CCN(c2cc3c(cc2Cl)CCN3C(=O)Cc2ccc(Cl)c(NC(=O)Nc3cccc(C#N)c3)c2)CC1 [TCMDC-139474]
5. Cc1cc(NCCc2ccccc2)nc(/N=C(\N)Nc2cccc(F)c2)n1 [TCMDC-138373]
6. CC(CN(C)C)C(=O)Nc1ccc(-c2cccc(-c3nc4ccc(C(F)(F)F)cc4[nH]3)c2)cc1 (centres unmarked) [TCMDC-137109]
7. Cc1cc(N2CCCC2)nc(/N=C(\N)Nc2cccc(C(F)(F)F)c2)n1 [TCMDC-138509]

1. -7.948
2. 40
3. -13.38
4. 3.911
5. 55.97
6. -30.4
7. 20.83

Consider the following items and state reported % Inhibition for each.
1. Cc1ccc(C(=O)Nc2cc(C(F)(F)F)cc(C(F)(F)F)c2)cc1[N+](=O)[O-] [TCMDC-125645]
2. COc1cccc(-c2csc(C(=O)NCC3CCN(Cc4ccc(C(C)C)cc4)C3)c2)c1 (centres unmarked) [TCMDC-134439]
3. Cc1csc(-c2nonc2NC(=O)COc2ccccc2C(C)C)n1 [TCMDC-125014]
4. COc1ccc(CNC(=O)NC2CCN(c3ccnc(Nc4ccc(OC)cc4)n3)C2)cc1 (centres unmarked) [TCMDC-133607]

[-10.1, 107.3, -9.384, 11.17]
